- Tested on: Bacillus subtilus (ATCC 6633)
- procedure details: M.I.C. by broth dilution method (NCCLS 1988), gram-positive bacteria
- Type: cell-based
- recorded conditions: ATCC6633, in vitro broth dilution
Documented MIC across a set of molecules
value type: MIC (µg/mL)

* CS(=O)(=O)N1CCN(c2cc3c(cc2F)c(=O)c(C(=O)O)cn3C2CC2)CC1 | 0.5
* O=C(O)c1cn(C2CC2)c2cc(NCC3CCCO3)c(F)cc2c1=O (stereo not drawn) | 0.12
* O=C(O)c1cn(C2CC2)c2cc(N3CCN(c4cccc(Cl)c4S)CC3)c(F)cc2c1=O | 0.5
* O=C(O)c1cn(C2CC2)c2cc(NCCN3CCCCC3)c(F)cc2c1=O | 0.12
* Cc1ccc(S(=O)(=O)N2CCN(c3cc4c(cc3F)c(=O)c(C(=O)O)cn4C3CC3)CC2)cc1 | 0.12
* CC(C)c1ccc(Nc2cc3c(cc2F)c(=O)c(C(=O)O)cn3C2CC2)cc1 | 0.12
* COc1ccc(S(=O)(=O)N2CCN(c3cc4c(cc3F)c(=O)c(C(=O)O)cn4C3CC3)CC2)cc1 | 0.01
* O=C(O)c1cn(C2CC2)c2cc(NC3CCC(C(=O)O)CC3)c(F)cc2c1=O (stereo not drawn) | 0.12
* O=C(O)c1cn(C2CC2)c2cc(N3CCN(c4ccc(Br)cn4)CC3)c(F)cc2c1=O | 0.12

====

- Test system: Bacillus subtilus (ATCC 6633)
- procedure details: M.I.C. by broth dilution method (NCCLS 1988), gram-positive bacteria
- Assay type: cell-based
- recorded conditions: ATCC6633, in vitro broth dilution
- Procedure: The antibacterial activity of the present compounds was investigated by in vitro evaluation of their M.I.C. (Minimum Inhibitory Concentration) values. The evaluation was conducted in complete accordance with the “Broth dilution method”, as outlined by the U.S. National Committee for Clinical Laboratory Standards “NCCLS 1988”. […]
value type: MIC

- O=C(O)c1cn(C2CC2)c2cc(N(CC3CCCO3)c3cncc(Cl)n3)c(F)cc2c1=O (centres unmarked): 0.12 µg/mL
- COc1ccc(S(=O)(=O)N(CC2CCCO2)c2cc3c(cc2F)c(=O)c(C(=O)O)cn3C2CC2)cc1 (centres unmarked): 0.12 µg/mL
- O=C(O)c1ccc(CNc2cc3c(cc2F)c(=O)c(C(=O)O)cn3C2CC2)cc1: 0.25 µg/mL
- O=C(O)c1cn(C2CC2)c2cc(N3CCN(c4cccc(Cl)n4)CC3)c(F)cc2c1=O: 0.01 µg/mL
- O=C(O)c1cn(C2CC2)c2cc(NCc3ccncc3)c(F)cc2c1=O: 0.12 µg/mL
- O=C(O)c1cn(C2CC2)c2cc(N3CCN(c4cncc(Cl)n4)CC3)c(F)cc2c1=O: 0.06 µg/mL
- O=C(O)c1cn(C2CC2)c2cc(N3CCN(S(=O)(=O)c4ccccc4)CC3)c(F)cc2c1=O: 0.06 µg/mL
- O=C(O)c1cn(C2CC2)c2cc(N3CCN(c4cnccn4)CC3)c(F)cc2c1=O: 0.12 µg/mL
- O=C(O)c1cn(C2CC2)c2cc(N(CCN3CCCCC3)C(=O)c3cccs3)c(F)cc2c1=O: 0.12 µg/mL
- O=C(O)c1cn(C2CC2)c2cc(N(CC3CCCO3)S(=O)(=O)c3ccc4ccccc4c3)c(F)cc2c1=O (centres unmarked): 0.12 µg/mL
- O=C(O)c1cn(C2CC2)c2cc(N(CC3CCCO3)S(=O)(=O)C(F)(F)F)c(F)cc2c1=O (centres unmarked): 0.12 µg/mL

====

- System: Bacillus subtilus (ATCC 6633)
- procedure details: M.I.C. by broth dilution method (NCCLS 1988), gram-positive bacteria
- Format: cell-based
- recorded conditions: ATCC6633, in vitro broth dilution
value type: MIC

• O=C(O)c1cn(C2CC2)c2cc(N3CCN(S(=O)(=O)c4ccc([N+](=O)[O-])cc4)CC3)c(F)cc2c1=O [JA 3] = 0.06 µg/mL
• O=C(O)c1cn(C2CC2)c2cc(N(CC3CCCO3)c3cccc(Cl)n3)c(F)cc2c1=O (centres unmarked) [JA 143] = 0.12 µg/mL
• O=C(O)c1cn(C2CC2)c2cc(N3CCN(S(=O)(=O)C(F)(F)F)CC3)c(F)cc2c1=O [JA 12] = 0.12 µg/mL
• O=C(O)c1cn(C2CC2)c2cc(N(CC3CCCO3)S(=O)(=O)CCc3ccccc3)c(F)cc2c1=O (centres unmarked) [JA 137] = 0.12 µg/mL
• O=C(O)c1cn(C2CC2)c2cc(N3CCN(S(=O)(=O)c4ccc5ccccc5c4)CC3)c(F)cc2c1=O [JA 5] = 0.008 µg/mL
